Each recorded value in this set is attributed to patent US6251925A.

experimental system: UniProtKB P13945
Sequence (P13945 whole entry): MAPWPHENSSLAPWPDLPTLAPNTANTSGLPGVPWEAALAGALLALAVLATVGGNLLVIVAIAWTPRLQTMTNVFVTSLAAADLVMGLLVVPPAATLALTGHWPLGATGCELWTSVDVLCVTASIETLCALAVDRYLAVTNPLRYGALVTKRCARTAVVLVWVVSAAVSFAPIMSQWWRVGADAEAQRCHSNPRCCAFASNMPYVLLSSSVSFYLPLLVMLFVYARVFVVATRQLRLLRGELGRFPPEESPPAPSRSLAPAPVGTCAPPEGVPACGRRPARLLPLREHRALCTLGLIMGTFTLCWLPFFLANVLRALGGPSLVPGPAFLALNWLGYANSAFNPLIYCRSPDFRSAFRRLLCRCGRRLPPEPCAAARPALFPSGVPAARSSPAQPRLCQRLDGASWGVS
assay explanation: extracellular cAMP accumulation (agonist activity) in CHO-6CRE-luciferase cells expressing hβ3
cond: CHO cells expressing hβ3, 60 min, 37° C.
measure name: EC50

Field: example entries. Status: answers known.
O=C(O)c1cccc(-c2cccc(NCCNC[C@H](O)c3cccc(Cl)c3)c2)c1    ≤ 1 nM
O=C(O)c1ccc(-c2cccc(NCCNC[C@H](O)c3cccc(Cl)c3)c2)c(C(=O)O)c1    ≤ 100 nM
O=C(O)c1cccc(-c2cccc(NCCNC[C@@H](O)COc3ccccc3)c2)c1    ≤ 1 nM
O=C(O)c1cc(-c2cccc(NCCNC[C@H](O)c3cccc(Cl)c3)c2)cc2c1OCC2    ≤ 100 nM
COC(=O)c1cc(C(=O)O)ccc1-c1cccc(NCCNC[C@H](O)c2cccc(Cl)c2)c1    ≤ 100 nM

Please provide the recorded EC50 for `O=C(O)c1cncc(-c2cccc(NCCNC[C@H](O)c3cccc(Cl)c3)c2)c1` , tested on UniProtKB P13945.
≤ 1 nM

Record `O=C(O)c1ccc(-c2cccc(NCCNC[C@H](O)c3cccc(Cl)c3)c2)cc1Cl` : what is its EC50 with UniProtKB P13945?
≤ 100 nM

Short answer please: EC50, UniProtKB P13945, entry `C[C@H](CNc1cccc(-c2ccc(C(=O)O)cc2C(=O)O)c1)NC[C@H](O)c1cccc(Cl)c1`
≤ 1 nM

Look up EC50 with UniProtKB P13945 for this compound: `C[C@H](CNc1cccc(-c2ncccc2C(=O)O)c1)NC[C@H](O)c1cccc(Cl)c1`
≤ 100 nM

Notebook entry, UniProtKB P13945 assay: EC50 of `C[C@H](CNc1cccc(-c2cncc(C(=O)O)c2)c1)NC[C@H](O)c1cccc(Cl)c1` = ?
≤ 100 nM

Hi! What's the reported EC50 for `O=C(O)c1cccc(-c2cccc(OCCNC[C@H](O)c3cccc(Cl)c3)c2)c1` on UniProtKB P13945?
≤ 100 nM

UniProtKB P13945 / EC50 / `O=C(O)c1cccc(-c2cccc(NCCNC[C@H](O)c3cc(Cl)cc(Cl)c3)c2)c1` : value?
≤ 100 nM
